Numbers sourced from patent US10934282B2.

Molecular target: human RORgt nuclear receptor (RORgT ligand binding domain protein) (Homo sapiens)
Sequence (P51449 with tags, fused parts or gaps): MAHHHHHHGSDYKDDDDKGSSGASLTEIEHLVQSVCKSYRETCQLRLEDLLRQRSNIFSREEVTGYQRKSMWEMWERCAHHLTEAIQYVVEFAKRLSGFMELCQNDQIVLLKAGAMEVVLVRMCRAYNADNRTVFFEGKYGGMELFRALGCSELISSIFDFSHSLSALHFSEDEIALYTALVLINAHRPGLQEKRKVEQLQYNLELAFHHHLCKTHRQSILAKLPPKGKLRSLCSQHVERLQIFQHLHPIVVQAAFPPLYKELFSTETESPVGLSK
Assay: ROR-gamma binding assay (Scintillation Proximity Assay, displacement of [3H]-25-hydroxycholesterol)
Details: EC50, SPA, 15 nM [3H]-25-Hydroxycholesterol, RORgT LBD 12 nM
Collected EC50 values appear next to each entry.
MEASURE: EC50 (nM)

chemical_smiles=Cc1cc(CN2CCN(C(=O)OC(C)C)[C@@H](C)C2)c(C)c(Nc2nnc([C@@H]3CCOC3)o2)c1 observed_measurement=25.6
chemical_smiles=Cc1cc(CN2CCN(C(=O)OC(C)C)[C@@H](C)C2)c(C)c(Nc2nnc([C@@H]3CNC(=O)O3)o2)c1 observed_measurement=42.1
chemical_smiles=Cc1cc(CN2CCN(C(=O)OC(C)C)[C@@H](C)C2)c(C)c(Nc2nnc([C@@H](C)O)o2)c1 observed_measurement=36.5
chemical_smiles=Cc1c(CN2CCN(C(=O)c3ccccc3)[C@@H](C)C2)cc(Cl)cc1Nc1nnc(C2(O)CC2)o1 observed_measurement=31.7
chemical_smiles=Cc1cc(CN2CCN(C(=O)OC(C)(C)C)[C@@H](C)C2)c(C)c(Nc2nnc(-c3ccnn3C)o2)c1 observed_measurement=32.4
chemical_smiles=Cc1cc(CN2CCN(C(=O)OC(C)C)[C@@H](C)C2)c(C)c(Nc2nnc(CC#N)o2)c1 observed_measurement=48
chemical_smiles=CC[C@H](C)C(=O)N1CCN(Cc2cc(Cl)cc(Nc3nnc(COC)o3)c2C)C[C@@H]1C observed_measurement=28.1

---

Consider the following compounds and their measured pEC50 readings.
Test system: IL-17A in Human peripheral mononuclear cells
Assay: Human PBMC IL-17A assay
Type: cell-based
Conditions: 72 h, EC50, antiCD3/antiCD28-coated beads, 3 days, alpha-LISA
pEC50: −log10 of the molar value.
MEASURE: pEC50

compound="Cc1cc(CN2CCN(C(=O)C3CC3)[C@@H](C)C2)c(C)c(Nc2nnc([C@@H](C)O)o2)c1 [Example 22]" measure=pEC50 observed_measurement=6.60
compound="Cc1cc(CN2CCN(C(=O)OC(C)C)[C@@H](C)C2)c(C)c(Nc2nnc([C@@H](C)O)o2)c1 [Example 56]" measure=pEC50 observed_measurement=7.28
compound="Cc1c(CN2CCN(C(=O)OC(C)C)[C@@H](C)C2)cc(Cl)cc1Nc1nnc(C2COC2)o1 [Example 40]" measure=pEC50 observed_measurement=6.67
compound="Cc1cc(CN2CCN(C(=O)C3CCC(F)(F)C3)[C@@H](C)C2)c(C)c(Nc2nnc([C@@H](C)O)o2)c1 (stereo partly shown) [Example 25]" measure=pEC50 observed_measurement=6.59
compound="Cc1c(CN2CCN(C(=O)OC(C)C)[C@@H](C)C2)cc(Cl)cc1Nc1nnc([C@@H]2CC(=O)N2)o1 [Example 53]" measure=pEC50 observed_measurement=7.03
compound="Cc1c(CN2CCN(C(=O)OC(C)(C)C)[C@@H](C)C2)cc(Cl)cc1Nc1ncc(CO)o1 [Example 74]" measure=pEC50 observed_measurement=6.39
compound="Cc1cc(CN2CCN(C(=O)C3CCC3)[C@@H](C)C2)c(C)c(Nc2nnc(CC#N)o2)c1 [Example 15]" measure=pEC50 observed_measurement=7.00

---

Listed here are molecules together with their documented log10(EC50).
System: IL-17A levels in human peripheral blood
Test: tissue or blood
Format: cell-based
Settings: 72 h, read-out: Human Whole blood IL-17A (nM)
MEASURE: log10(EC50) (log10 of the value in nM)

molecule=Cc1cc(CN2CCN(C(=O)OC(C)C)[C@@H](C)C2)c(C)c(Nc2nnc([C@@H]3CNC(=O)O3)o2)c1 target_entity="IL-17A levels in human peripheral blood" observed_measurement=2.41
molecule=Cc1c(CN2CCN(C(=O)OC(C)C)[C@@H](C)C2)cc(Cl)cc1Nc1nnc([C@@H](C)O)o1 target_entity="IL-17A levels in human peripheral blood" observed_measurement=2.58
molecule=Cc1cc(CN2CCN(C(=O)OC(C)C)[C@@H](C)C2)c(C)c(Nc2nnc(C[C@H](C)O)o2)c1 target_entity="IL-17A levels in human peripheral blood" observed_measurement=2.29
molecule="Cc1cc(CN2CCN(C(=O)C3CCC(F)(F)C3)[C@@H](C)C2)c(C)c(Nc2nnc([C@@H](C)O)o2)c1 (some centres unmarked)" target_entity="IL-17A levels in human peripheral blood" observed_measurement=2.28
molecule="Cc1c(CN2CCN(C(=O)OC(C)C)[C@@H](C)C2)cc(Cl)cc1Nc1nnc(C2CCCOC2)o1 (some centres unmarked)" target_entity="IL-17A levels in human peripheral blood" observed_measurement=2.52
molecule=Cc1cc(CN2CCN(C(=O)OC(C)(C)C)[C@@H](C)C2)c(C)c(Nc2nnc(-c3nonc3C)o2)c1 target_entity="IL-17A levels in human peripheral blood" observed_measurement=1.92
molecule=Cc1c(CN2CCN(C(=O)OC(C)C)[C@@H](C)C2)cc(C(F)F)cc1Nc1nnc([C@H](C)O)o1 target_entity="IL-17A levels in human peripheral blood" observed_measurement=2.52
molecule="Cc1cc(CN2CCN(C(=O)C3CCC(F)(F)C3)[C@@H](C)C2)c(C)c(Nc2nnc([C@H]3NCC[C@H]3O)o2)c1 (some centres unmarked)" target_entity="IL-17A levels in human peripheral blood" observed_measurement=3.55
molecule=Cc1cc(CN2CCN(C(=O)C3CCC3)[C@@H](C)C2)c(C)c(Nc2nnc([C@@H](C)O)o2)c1 target_entity="IL-17A levels in human peripheral blood" observed_measurement=2.33
molecule=Cc1cc(CN2CCN(C(=O)OC(C)C)[C@@H](C)C2)c(C)c(Nc2nnc([C@@H](C)N)o2)c1 target_entity="IL-17A levels in human peripheral blood" observed_measurement=2.74
molecule=CC[C@H](O)c1nnc(Nc2cc(C)cc(CN3CCN(C(=O)OC(C)C)[C@@H](C)C3)c2C)o1 target_entity="IL-17A levels in human peripheral blood" observed_measurement=2.01
molecule=Cc1c(CN2CCN(C(=O)OC(C)C)[C@@H](C)C2)cc(C(F)F)cc1Nc1nnc([C@@H](C)O)o1 target_entity="IL-17A levels in human peripheral blood" observed_measurement=2.43
molecule=Cc1cc(CN2CCN(C(=O)OC(C)C)[C@@H](C)C2)c(C)c(Nc2nnc(C[C@@H](C)O)o2)c1 target_entity="IL-17A levels in human peripheral blood" observed_measurement=2.00
molecule=Cc1cc(CN2CCN(C(=O)OC(C)C)[C@@H](C)C2)c(C)c(Nc2nnc(-c3nonc3C)o2)c1 target_entity="IL-17A levels in human peripheral blood" observed_measurement=2.25
molecule=Cc1c(CN2CCN(C(=O)OC(C)C)[C@@H](C)C2)cc(Cl)cc1Nc1nnc([C@@H]2CC(=O)N2)o1 target_entity="IL-17A levels in human peripheral blood" observed_measurement=2.39
molecule="Cc1cc(CN2CCN(C(=O)OC(C)C)[C@@H](C)C2)c(C)c(Nc2nnc(C3CCNC(=O)C3)o2)c1 (some centres unmarked)" target_entity="IL-17A levels in human peripheral blood" observed_measurement=2.33
molecule=Cc1cc(CN2CCN(C(=O)OC(C)(C)C)[C@@H](C)C2)c(C)c(Nc2nnc(-c3cnsn3)o2)c1 target_entity="IL-17A levels in human peripheral blood" observed_measurement=2.10
molecule=CCOC(=O)N1CCN(Cc2cc(C)cc(Nc3nnc([C@@H](C)O)o3)c2C)C[C@@H]1C target_entity="IL-17A levels in human peripheral blood" observed_measurement=2.49
molecule=Cc1cc(CN2CCN(C(=O)CC3CCC3)[C@@H](C)C2)c(C)c(Nc2nnc([C@@H](C)O)o2)c1 target_entity="IL-17A levels in human peripheral blood" observed_measurement=2.08
molecule=Cc1cc(CN2CCN(C(=O)OC(C)C)[C@@H](C)C2)c(C)c(Nc2nnc([C@@H]3CCCN3S(C)(=O)=O)o2)c1 target_entity="IL-17A levels in human peripheral blood" observed_measurement=2.03
molecule=Cc1cc(CN2CCN(C(=O)OC(C)C)[C@@H](C)C2)c(C)c(Nc2nnc([C@@H](O)CO)o2)c1 target_entity="IL-17A levels in human peripheral blood" observed_measurement=2.41
molecule=Cc1cc(CN2CCN(C(=O)OC(C)C)[C@@H](C)C2)c(C)c(Nc2nnc(C)o2)c1 target_entity="IL-17A levels in human peripheral blood" observed_measurement=2.70
molecule="Cc1c(CN2CCN(C(=O)OC(C)C)[C@@H](C)C2)cc(Cl)cc1Nc1nnc(C2CCNC2=O)o1 (some centres unmarked)" target_entity="IL-17A levels in human peripheral blood" observed_measurement=2.47
molecule=Cc1cc(CN2CCN(C(=O)OC(C)C)[C@@H](C)C2)c(C)c(Nc2nnc(-c3ccnn3C)o2)c1 target_entity="IL-17A levels in human peripheral blood" observed_measurement=2.32
molecule=Cc1c(CN2CCN(C(=O)OC(C)C)[C@@H](C)C2)cc(Cl)cc1Nc1nnc([C@H]2C[C@H](O)C2)o1 target_entity="IL-17A levels in human peripheral blood" observed_measurement=2.28
molecule="Cc1c(CN2CCN(C(=O)c3ccccc3)[C@@H](C)C2)cc(Cl)cc1Nc1nnc(C2CCOC2)o1 (some centres unmarked)" target_entity="IL-17A levels in human peripheral blood" observed_measurement=2.31
molecule=Cc1cc(CN2CCN(C(=O)OC(C)C)[C@@H](C)C2)c(C)c(Nc2nnc([C@@H]3CCOC3)o2)c1 target_entity="IL-17A levels in human peripheral blood" observed_measurement=2.05
molecule=Cc1cc(CN2CCN(C(=O)OC(C)C)[C@@H](C)C2)c(C)c(Nc2nnc(CC#N)o2)c1 target_entity="IL-17A levels in human peripheral blood" observed_measurement=2.56
molecule=Cc1c(CN2CCN(C(=O)C3CCCC3)[C@@H](C)C2)cc(Cl)cc1Nc1nnc(CC#N)o1 target_entity="IL-17A levels in human peripheral blood" observed_measurement=2.31
